Data provenance is PubChem BioAssay (NCI).

- Tested on: HCT-116 colon
- protocolText: NCI-60 one-dose screen, 48 h (100 = growth as untreated, 0 = no growth, -100 = all killed)
- runParameters: 10 µM unless noted
This is part of a sample that, as a whole, favours compounds with a hit. Of some 83,000 tested, about 20% had one in any assay.
Class boundaries, taken from values of growth, are as follows: low interval: < 60%; middle interval: ≥ 60% and < 90%; high interval: ≥ 90%

molecule: COc1ccc2[nH]c(-c3ccccc3)cc2c1
category: high interval
//
molecule: COc1ccc(C2CC(c3cccc(Nc4ccnc5cc(Cl)ccc45)c3)=NN2C=O)cc1 (configuration not stated)
category: low interval
//
molecule: COc1cc(/C=C/C(=O)c2c(-c3ccc(F)cc3)nc3sc(C)nn23)cc(OC)c1OC
category: low interval
//
molecule: Cc1nn(-c2ccc(Cl)cc2)c2nc3c(nc12)C(=O)C(=O)c1ccccc1-3
category: middle interval
//
molecule: COc1ccc(/C=C(\C#N)c2ccccc2)cc1
category: middle interval

Input line: Just checking, what class would you give "Oc1ccccc1C=Nc1ccccc1N=Cc1ccccc1O.[Cu+2]" here?
Output line: low interval

Input line: Just checking, what class would you give "COc1ccc2c(c1)/C(=C\c1c[nH]c3ccc(F)cc13)C(=O)N2" here?
Output line: middle interval

Input line: Just checking, what class would you give "COc1ccc(Nc2ccnc(NCCCNc3ccnc4cc(Cl)ccc34)n2)cc1" here?
Output line: low interval

Input line: Just checking, what class would you give "CCCc1cccc(CCC)c1O" here?
Output line: high interval

Input line: Just checking, what class would you give "COc1ccc(Cn2c(NCCCN(C)C)nc(=O)n(Cc3ccc(F)cc3)c2=O)cc1" here?
Output line: high interval

Input line: Just checking, what class would you give "CCN1C(=O)c2ccc3c4c(ccc(c24)C1=O)C(=O)N(CCCNCc1ccccc1OC)C3=O" here?
Output line: low interval

Input line: Just checking, what class would you give "CCN(CC)CCOc1ccc(C2=C(c3ccccc3)CCc3cc(OC)ccc32)cc1" here?
Output line: low interval

Input line: Just checking, what class would you give "c1ccc(Nc2nnc(-c3cc(-c4cccnc4)n(-c4ccccc4)n3)s2)cc1" here?
Output line: middle interval

Input line: Just checking, what class would you give "O=c1c(O)cccn1CCCNCCCN(CCCn1cccc(O)c1=O)CCCn1cccc(O)c1=O" here?
Output line: high interval

Input line: Just checking, what class would you give COc1ccc(C2CC(c3ccc(OC)c(OC)c3)=NN2C(=O)c2cc(OC)c(OC)c(OC)c2)cc1 (configuration not stated) here?
Output line: low interval

Input line: Just checking, what class would you give "Cc1nn(-c2ccccc2)c(Cl)c1C(CC(=O)c1ccc(Cl)cc1)CC(=O)c1ccc(Cl)cc1" here?
Output line: middle interval

Input line: Just checking, what class would you give "CN(CC(=O)N(Cc1ccc(C2CCCCC2)cc1)c1ccc(C(=O)O)cc1)S(=O)(=O)c1c(F)c(F)c(F)c(F)c1F" here?
Output line: low interval

Input line: Just checking, what class would you give "Cn1cc(-c2csc(-c3cn(C)c4ncccc34)n2)c2cccnc21" here?
Output line: high interval

Input line: Just checking, what class would you give "CCOc1ccccc1C(=O)OCC(=O)Nc1cccc(S(=O)(=O)N(C)C)c1" here?
Output line: high interval

----------
Quick list: growth per entry.
- Test system: SW-620 colon
- protocolText: NCI-60 one-dose screen, 48 h (100 = growth as untreated, 0 = no growth, -100 = all killed)
- runParameters: 10 µM unless noted
About 83,000 compounds went through this panel and 20% of them were active in at least one assay; those are over-represented in the sample as a whole.
State the answer as a number, implicitly in %.

Some molecules with known growth results, for comparison:
cpdSmiles: COc1ccc2c(c1)nc(N)c1c3cc(C)c(C)cc3cn21
growth [%]: 41.9

cpdSmiles: O=C1NCN(CCO)CN1
growth [%]: 102

cpdSmiles: O=C(Nc1ncc([N+](=O)[O-])s1)c1cccc([N+](=O)[O-])c1
growth [%]: 73.4

cpdSmiles: CCCc1cccc(CCC)c1O
growth [%]: 104

cpdSmiles: O=C1c2ccccc2C(=O)c2c1cccc2-n1nnc2ccccc21
growth [%]: 105

growth reading for "Nc1ccc2c(c1)/C(=N/O)c1cc([N+](=O)[O-])ccc1-2" : 13.1

----------
- System: TK-10 renal
- protocolText: NCI-60 one-dose screen, 48 h (100 = growth as untreated, 0 = no growth, -100 = all killed)
- runParameters: 10 µM unless noted
About 83,000 compounds went through this panel and 20% of them were active in at least one assay; those are over-represented in the sample as a whole.
yes means recorded growth is 90% or above; no means it is below 90%.

Solved cases (4 shown):
compound: C=C1CC[C@@H]2[C@](C)(COC(C)=O)[C@H](OC(C)=O)CC[C@@]2(C)[C@@H]1CC(Nc1ccc(S(=O)(=O)Nc2cc(C)on2)cc1)C1=CCOC1=O (stereo not given in full)
category: no
--
compound: O=C1CCCN1C1CCN(Cc2cc3ccccc3[nH]c2=O)c2ccccc21 (stereo not given)
category: yes
--
compound: CCCn1cnc2c1c(=O)n(CCCCC(C)=O)c(=O)n2C
category: yes
--
compound: O=C(/C=C/c1ccc(O)c(O)c1)N1CCN(c2ccc(Cl)cc2)CC1
category: no

Attention now shifts to the item below.
Input line: Check this compound for growth at or above 90%: "CCCCCCCCCCSc1ncnc2nc[nH]c12"
Output line: no

----------
- System: EKVX NSCLC
- protocolText: NCI-60 one-dose screen, 48 h (100 = growth as untreated, 0 = no growth, -100 = all killed)
- runParameters: 10 µM unless noted
The panel holds about 83,000 compounds, 20% with a hit somewhere; the sample as a whole holds those more often.
Quick list: growth per entry.
State the answer as a number, implicitly in %.

Some compounds with known growth results, for comparison:
compound: O=C(c1ccccc1)c1ccccc1Cl
unitInfo: %
growth: 101
--
compound: Fc1ccc([C@@H]2CCNC[C@H]2COc2ccc3c(c2)OCO3)cc1
unitInfo: %
growth: 77.3
--
compound: O=C1/C(=N/O)CCc2ccccc21
unitInfo: %
growth: 88.8
--
compound: CC(=O)c1nc2ccccc2n1CCn1cc(CC(N)C(=O)O)c2ccccc21 (configuration not stated)
unitInfo: %
growth: 82.4
--
compound: ClC1=C(Cl)C(Cl)=C(Cl)C1=Cc1ccc(Cl)cc1
unitInfo: %
growth: -22.6
--
compound: Cc1[nH]n(C(N)=S)c(=O)c1N=Nc1ccc(F)c(Cl)c1
unitInfo: %
growth: 96.6
--
compound: Cc1ccc(NC(=O)CSc2nnc3n(Cc4ccccc4)c(=O)c4c(C)c(C(N)=O)sc4n23)cc1
unitInfo: %
growth: 91.7
--
compound: O=C(Nc1ccc(Nc2ccncc2)cc1)c1ccc(Nc2ccnc3ccc([N+](=O)[O-])cc23)cc1[N+](=O)[O-]
unitInfo: %
growth: 50

Turning now to a further compound:
growth reading for "Cc1cc(O)c2c(c1)C[C@H]1[C@@H]3CC[C@H]4CC(=O)CC[C@]4(C)[C@H]3CC(=O)[C@]21C" : 49.8

----------
- Tested on: SK-MEL-2 melanoma
- protocolText: NCI-60 one-dose screen, 48 h (100 = growth as untreated, 0 = no growth, -100 = all killed)
- runParameters: 10 µM unless noted
About 83,000 compounds went through this panel and 20% of them were active in at least one assay; those are over-represented in the sample as a whole.
Quick list: growth per entry.
State the answer as a number, implicitly in %.

Some molecules with known growth results, for comparison:
molecule: Cc1c(C)c(N2C(=O)C=CC2=O)c(C)c(C)c1N1C(=O)C=CC1=O
assayReadout: growth
valueObserved: 109

molecule: c1ccc2cc(C[n+]3ccn(CCCCCCCn4cc[n+](Cc5ccc6ccccc6c5)c4)c3)ccc2c1
assayReadout: growth
valueObserved: 23.4

molecule: C/C(=N/N=C(N)N)c1ccc(Cl)cc1
assayReadout: growth
valueObserved: -5.11

growth reading for "O=C(OC[C@H]1O[C@H](OC(=O)c2cc(O)c(O)c(OC(=O)c3cc(O)c(O)c(O)c3)c2)[C@H](OC(=O)c2cc(O)c(O)c(OC(=O)c3cc(O)c(O)c(O)c3)c2)[C@@H](OC(=O)c2cc(O)c(O)c(OC(=O)c3cc(O)c(O)c(O)c3)c2)[C@@H]1OC(=O)c1cc(O)c(O)c(OC(=O)c2cc(O)c(O)c(O)c2)c1)c1cc(O)c(O)c(OC(=O)c2cc(O)c(O)c(O)c2)c1" : 80.4

growth reading for "COC(=O)[C@]1(C(C)C)N[C@H](c2cn(-c3ccccc3)nc2-c2ccccc2)[C@@H]2C(=O)N(c3ccc(Cl)cc3)C(=O)[C@@H]21" : 86.9

growth reading for "O=C(CCc1nnc2sc(Cc3ccccc3Cl)nn12)c1nc2ccccc2[nH]1" : 93

growth reading for CC[C@]1(O)CC2CN(CCc3c([nH]c4ccccc34)[C@@](C(=O)OC)(c3cc4c(cc3OC)N(C)[C@H]3[C@@](O)(C(=O)OC)[C@H](OC(C)=O)[C@]5(CC)C=CCN6CC[C@]43[C@@H]65)C2)C1 (stereo partly specified) : 34.3

growth reading for "COc1ccc2c(c1)C(=O)c1c-2c(OCCCN(C)C)nc2cc(Br)ccc12" : 97.7

growth reading for "COc1cc2cn3c4ccc(O)cc4nc(N)c3c2cc1OC" : 21.2
